These data points were gathered from patent US11236087B2.

Here the recorded CC50 at 6 days is given for each entry.
# Assay Details: Cell viability assay (AlamarBlue) in HepAD38 cells
# Study Conditions: human
Measured Property: CC50 at 6 days

* CC1(O)CN(C(=O)c2n[nH]c3c2CN(C(=O)c2cc4ccccc4[nH]2)CC3)C1 | > 15 µM
* CC(C)OCC1(N(C)C(=O)c2n[nH]c3c2CN(C(=O)c2cc4ccccc4[nH]2)CC3)CC1 | > 10 µM
* CCOCC1(N(C)C(=O)c2[nH]nc3c2CN(C(=O)c2cc4c(Cl)cc(F)cc4[nH]2)CC3)CC1 | > 10 µM
* COCCN(C)C(=O)c1n[nH]c2c1CN(C(=O)c1cc3ccccc3[nH]1)CC2 | > 100 µM
* COCC1(N(C)C(=O)c2n[nH]c3c2CN(C(=O)c2cc4cc(F)c(Cl)cc4[nH]2)CC3)CC1 | > 10 µM
* O=C(c1cc2c(C(F)(F)F)cccc2[nH]1)N1CCc2n[nH]c(-c3cscn3)c2C1 | > 10 µM
* CN(C(=O)c1[nH]nc2c1CN(C(=O)c1cc3ccccc3[nH]1)CC2)C1(C)COC1 | > 10 µM
* O=C(c1cc2c(F)ccc(F)c2[nH]1)N1CCc2n[nH]c(-c3cscn3)c2C1 | > 10 µM
* CN(C(=O)c1n[nH]c2c1CN(C(=O)c1cc3ccccc3[nH]1)CC2)[C@@H]1CCCC[C@@H]1O | > 10 µM
* CN(OCCO)C(=O)c1n[nH]c2c1CN(C(=O)c1cc3c(Cl)cccc3[nH]1)CC2 | > 10 µM
* O=C(c1cc2ccccc2[nH]1)N1CCc2[nH]nc(C(=O)N3CCCC34CCC4)c2C1 | > 10 µM
* O=C(c1cc2cc(Cl)ccc2[nH]1)N1CCc2[nH]ncc2C1 | > 100 µM
* O=C(c1cc2ccccc2[nH]1)N1CCc2[nH]nc(CO)c2C1 | > 100 µM
* CN(C(=O)c1[nH]nc2c1CN(C(=O)c1cc3ccccc3[nH]1)CC2)C1(c2cocn2)CC1 | > 10 µM
* CN(C(=O)c1n[nH]c2c1CN(C(=O)c1cc3ccccc3[nH]1)CC2)C1(COC(F)F)CC1 | > 10 µM
* CN(CC(O)C1CC1)C(=O)c1n[nH]c2c1CN(C(=O)c1cc3ccccc3[nH]1)CC2 (stereo not shown) | > 10 µM

* * *

# Assay Details: Cell viability assay (AlamarBlue) in HepAD38 cells
# Study Conditions: human
Measured Property: CC50 at 6 days

- COCC1(N(C)C(=O)c2n[nH]c3c2CN(C(=O)c2cc4c(F)cc(Cl)cc4[nH]2)CC3)CC1: > 10 µM
- CN(c1n[nH]c2c1CN(C(=O)c1cc3ccccc3[nH]1)CC2)S(C)(=O)=O: > 100 µM
- CN(C(=O)c1n[nH]c2c1CN(C(=O)c1cc3ccccc3[nH]1)CC2)C1(c2ccccn2)CC1: > 10 µM
- COCCNC(=O)c1n[nH]c2c1CN(C(=O)c1cc3ccccc3[nH]1)CC2: > 100 µM
- [2H]C([2H])([2H])OCC1(N(C)C(=O)c2n[nH]c3c2CN(C(=O)c2cc4ccccc4[nH]2)CC3)CC1: > 10 µM
- CC(C)OC(=O)[C@H](C)NP(=O)(OCCCN(C)C(=O)c1n[nH]c2c1CN(C(=O)c1cc3ccccc3[nH]1)CC2)Oc1ccccc1 (stereo partly drawn): > 32 µM
- COCC1(N(C)C(=O)c2n[nH]c3c2CN(C(=O)c2cc4c(C(F)F)cc(F)cc4[nH]2)CC3)CC1: > 10 µM
- CON(C)C(=O)c1n[nH]c2c1CN(C(=O)c1cc3c(F)cc(F)cc3[nH]1)CC2: > 100 µM
- O=C(c1cc2c(Cl)cc(F)cc2[nH]1)N1CCc2[nH]nc(C(=O)N3CCC(F)(F)C3)c2C1: > 10 µM
- O=C(c1cc2ccccc2[nH]1)N1CCc2[nH]nc(C(=O)N3C[C@@H]4[C@@H](CO)[C@@H]4C3)c2C1: > 10 µM
- CCc1cc(F)cc2[nH]c(C(=O)N3CCc4[nH]nc(C(=O)N(C)CCO)c4C3)cc12: > 10 µM
- CCN(C(=O)c1n[nH]c2c1CN(C(=O)c1cc3ccccc3[nH]1)CC2)C1COC1: > 10 µM
- O=C(c1cc2ccccc2[nH]1)N1CCc2[nH]nc(C(=O)N3CC(CCO)C3)c2C1: > 100 µM
- CCON=C(C)c1n[nH]c2c1CN(C(=O)c1cc3ccccc3[nH]1)CC2: > 10 µM
- O=C(c1cc2ccccc2[nH]1)N1CCc2[nH]nc(C34CC(C3)C4)c2C1: > 10 µM

* * *

Here the recorded pIC50 is given for each entry.
# Target Of Assay: HBV core protein (UniProt P03146)
# Construct: fused on or other part: BODIPY-FL maleimide label on the C-terminal Cys150
# Sequence (P03146 whole entry, looked up, the tested form may be a part): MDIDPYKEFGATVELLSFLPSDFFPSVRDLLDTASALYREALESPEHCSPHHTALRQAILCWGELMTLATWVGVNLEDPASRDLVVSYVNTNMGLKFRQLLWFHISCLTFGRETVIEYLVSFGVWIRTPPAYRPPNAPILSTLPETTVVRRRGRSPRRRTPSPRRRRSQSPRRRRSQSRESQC
# Assay Details: Biochemical capsid assembly assay (fluorescence quenching)
# Set-up: species or system hepatitis B virus
# Study Conditions: read-out: Assembly Activity (IC50); BODIPY-FL labelled core protein, 300 μM NaCl, read 6 min after start
pIC50: −log10 of the molar value.
Measured Property: pIC50

* COCC1(N(C)C(=O)c2n[nH]c3c2CN(C(=O)c2cc4c(F)c(F)cc(F)c4[nH]2)CC3)CC1 [Example 307] | > 5.30
* CN(CCN)C(=O)c1[nH]nc2c1CN(C(=O)c1cc3ccccc3[nH]1)CC2 [Example 280] | > 4.00
* O=C(c1cc2ccccc2[nH]1)N1CCc2[nH]nc(-c3cscn3)c2C1 [Example 47] | > 5.30
* O=C(c1cc2ccccc2[nH]1)N1CCc2[nH]nc(C(=O)N3C[C@@H]4[C@@H](O)[C@@H]4C3)c2C1 [Example 176] | 5.00 to 5.30
* O=C(c1cc2cccc(Cl)c2[nH]1)N1CCc2[nH]ncc2C1 [Example 120] | 5.00 to 5.30
* CC1(O)CN(C(=O)c2n[nH]c3c2CN(C(=O)c2cc4ccccc4[nH]2)CC3)C1 [Example 34] | > 4.00
* O=C(c1cc2ccccc2[nH]1)N1CCc2[nH]nc(C(=O)N3CC[C@H](O)C3)c2C1 [Example 157] | > 4.00
* O=C(c1cc2ccccc2[nH]1)N1CCc2[nH]nc(C(=O)N3Cc4cn[nH]c4C3)c2C1 [Example 181] | 5.00 to 5.30
* CC(O)c1cccc2[nH]c(C(=O)N3CCc4[nH]nc(C(=O)N(C)CCO)c4C3)cc12 (stereo not shown) [Example 50] | > 4.00
* CN(CCO)C(=O)c1n[nH]c2c1CN(C(=O)c1cc3c(F)c(F)c(F)cc3[nH]1)CC2 [Example 8] | > 5.30
* CN(C(=O)c1n[nH]c2c1CN(C(=O)c1cc3ccccc3[nH]1)CC2)C1CCCCC1 [Example 170] | 5.00 to 5.30
* COCC1(N(C)C(=O)c2n[nH]c3c2CN(C(=O)c2cc4cccc(F)c4[nH]2)CC3)CC1 [Example 308] | > 5.30
* CCON=C(C)c1n[nH]c2c1CN(C(=O)c1cc3ccccc3[nH]1)CC2 [Example 273] | > 4.00
* CON(C)C(=O)c1n[nH]c2c1CN(C(=O)c1cc3c(Cl)cccc3[nH]1)CC2 [Example 113] | > 5.30
* CN(CCO)C(=O)c1n[nH]c2c1CN(C(=O)c1cc3c(C(F)F)cc(F)cc3[nH]1)CC2 [Example 3] | > 5.30
* CCc1cccc2[nH]c(C(=O)N3CCc4[nH]nc(C(=O)N(C)C5(COC)CC5)c4C3)cc12 [Example 270] | > 5.30

* * *

# Assay Details: Cell viability assay (AlamarBlue) in HepAD38 cells
# Study Conditions: human
Measured Property: CC50 at 6 days

* CN(C(=O)c1[nH]nc2c1CN(C(=O)c1cc3ccc(Cl)cc3[nH]1)CC2)C1CC1 [Example 325] | > 10 µM
* CN(CCO)C(=O)c1n[nH]c2c1CN(C(=O)c1cc3c(C(F)F)cc(F)cc3[nH]1)CC2 [Example 3] | > 10 µM
* CN(CC1CCCO1)C(=O)c1n[nH]c2c1CN(C(=O)c1cc3ccccc3[nH]1)CC2 (centres unmarked) [Example 97] | > 100 µM
* CC(O)CN(C)C(=O)c1n[nH]c2c1CN(C(=O)c1cc3ccccc3[nH]1)CC2 (centres unmarked) [Example 41] | > 100 µM
* Cc1cccc2[nH]c(C(=O)N3CCc4[nH]nc(C(=O)N(C)OCCOP(=O)(N[C@@H](C)C(=O)OC(C)C)Oc5ccccc5)c4C3)cc12 (some centres unmarked) [Example 55] | > 32 µM
* O=C(c1cc2ccccc2[nH]1)N1CCc2[nH]nc(C(=O)N3CCCO3)c2C1 [Example 133] | > 100 µM
* CN(C)c1n[nH]c2c1CN(C(=O)c1cc3ccccc3[nH]1)CC2 [Example 75] | > 100 µM
* CN(C(=O)c1n[nH]c2c1CN(C(=O)c1cc3ccccc3[nH]1)CC2)[C@H]1CC[C@H](O)CC1 [Example 173] | > 10 µM
* CN(C(=O)c1n[nH]c2c1CN(C(=O)c1cc3ccccc3[nH]1)CC2)C1CCCCC1 [Example 170] | > 10 µM
* COCC1(N(C)C(=O)c2n[nH]c3c2CN(C(=O)c2cc4c(F)c(F)cc(F)c4[nH]2)CC3)CC1 [Example 307] | > 10 µM
* CON=C(C)c1n[nH]c2c1CN(C(=O)c1cc3ccccc3[nH]1)CC2 [Example 274] | > 10 µM
* O=C(NC1CCCCC1)c1n[nH]c2c1CN(C(=O)c1cc3ccccc3[nH]1)CC2 [Example 87] | > 100 µM
* CN(C(=O)c1[nH]nc2c1CN(C(=O)c1cc3c(F)cccc3[nH]1)CC2)C1CC1 [Example 322] | > 10 µM
* CCc1cc(F)cc2[nH]c(C(=O)N3CCc4[nH]nc(C(=O)N5CCCC56CC6)c4C3)cc12 [Example 214] | > 10 µM
* CC(O)c1cc(F)cc2[nH]c(C(=O)N3CCc4[nH]nc(C(=O)N(C)CCO)c4C3)cc12 (centres unmarked) [Example 49] | > 100 µM
* CN1CCN(C(=O)c2n[nH]c3c2CN(C(=O)c2cc4ccccc4[nH]2)CC3)CC1 [Example 98] | > 32 µM
* CN(C(=O)c1n[nH]c2c1CN(C(=O)c1cc3c(Cl)c(F)ccc3[nH]1)CC2)C1(CO)CC1 [Example 239] | > 10 µM
* O=C(c1cc2ccccc2[nH]1)N1CCc2[nH]nc(C(=O)N3CCCC34CC4)c2C1 [Example 184] | > 10 µM
* COC(=O)C1CCN(C(=O)c2n[nH]c3c2CN(C(=O)c2cc4ccccc4[nH]2)CC3)CC1 [Example 132] | > 10 µM
* O=C(c1cc2ccccc2[nH]1)N1CCc2[nH]nc(C(=O)N3CCC4(CCO4)C3)c2C1 (centres unmarked) [Example 182] | > 10 µM
* O=C(c1cc2ccccc2[nH]1)N1CCc2[nH]nc(C(=O)N3CC(O)C3)c2C1 [Example 40] | > 100 µM
* O=C(c1cc2ccc(Cl)cc2[nH]1)N1CCc2n[nH]c(-c3cscn3)c2C1 [Example 16] | > 10 µM
* Cc1cccc2[nH]c(C(=O)N3CCc4n[nH]c(-c5cscn5)c4C3)cc12 [Example 23] | > 10 µM
* COCC1(N(C)C(=O)c2n[nH]c3c2CN(C(=O)c2cc4ccccc4[nH]2)CC3)CCC1 [Example 154] | > 10 µM
* O=C(NCCO)c1n[nH]c2c1CN(C(=O)c1cc3ccccc3[nH]1)CC2 [Example 107] | > 100 µM
* CN(C(=O)c1n[nH]c2c1CN(C(=O)c1cc3c(Cl)cc(F)cc3[nH]1)CC2)C1(CO)CC1 [Example 241] | > 10 µM
* O=C(c1cc2ccccc2[nH]1)N1CCc2[nH]nc(C(=O)N3CCC[C@H]3CO)c2C1 [Example 180] | > 10 µM
* CCN(C)C(=O)c1n[nH]c2c1CN(C(=O)c1cc3ccccc3[nH]1)CC2 [Example 103] | > 100 µM
* CC(CO)N(C)C(=O)c1n[nH]c2c1CN(C(=O)c1cc3ccccc3[nH]1)CC2 (centres unmarked) [Example 42] | > 100 µM
* CNC(C)(C)COC(=O)c1n[nH]c2c1CN(C(=O)c1cc3ccccc3[nH]1)CC2 [Example 31] | > 100 µM
* COCC1(N(C)C(=O)c2n[nH]c3c2CN(C(=O)c2cc4c(C(F)(F)F)cccc4[nH]2)CC3)CC1 [Example 302] | > 10 µM
* CCN(C(=O)c1n[nH]c2c1CN(C(=O)c1cc3ccccc3[nH]1)CC2)C1(COC)CC1 [Example 296] | > 10 µM
